Here the recorded glycan array binding signal (z-score) is given for each entry.
MEASUREMENT_TARGET: Gal(a1-3)Gal(b1-4)GlcNAc(b1-3)GalNAc
TEST_METHOD_NOTES: glycan array binding signal (z-score within array); higher = stronger binding
EXPERIMENTAL_SETUP: glycan notation: IUPAC condensed, linker removed
This is one part of a sample in which the strongest signals are shown more often than they occur.
QUANTITY_NAME: glycan array binding signal (z-score)

SBD-G4S3-Fc (protein) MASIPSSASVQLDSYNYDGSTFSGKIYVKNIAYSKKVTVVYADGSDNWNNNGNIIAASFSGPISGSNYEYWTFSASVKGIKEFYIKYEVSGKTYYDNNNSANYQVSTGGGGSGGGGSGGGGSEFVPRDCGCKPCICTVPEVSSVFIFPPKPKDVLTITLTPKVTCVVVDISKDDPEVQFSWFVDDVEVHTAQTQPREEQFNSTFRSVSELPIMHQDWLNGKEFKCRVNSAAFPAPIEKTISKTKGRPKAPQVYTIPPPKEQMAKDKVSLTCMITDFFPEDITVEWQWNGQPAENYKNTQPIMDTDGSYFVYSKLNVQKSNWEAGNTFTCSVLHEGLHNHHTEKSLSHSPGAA = 0.357
Drgal1 (Danio rerio) (protein) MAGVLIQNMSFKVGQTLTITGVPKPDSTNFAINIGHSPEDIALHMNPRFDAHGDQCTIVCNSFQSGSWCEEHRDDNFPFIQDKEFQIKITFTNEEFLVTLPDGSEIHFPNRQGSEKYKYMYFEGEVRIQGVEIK = -0.48
rCnSL-proA (Clitocybe nebularis) (protein) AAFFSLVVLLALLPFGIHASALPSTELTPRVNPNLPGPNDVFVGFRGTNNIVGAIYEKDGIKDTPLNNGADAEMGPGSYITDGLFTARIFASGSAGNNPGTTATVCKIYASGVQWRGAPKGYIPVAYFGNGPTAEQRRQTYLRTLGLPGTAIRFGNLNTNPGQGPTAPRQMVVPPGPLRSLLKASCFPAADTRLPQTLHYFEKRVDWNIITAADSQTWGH = -0.161
CD72 ectodomain (Homo sapiens), P21854 (protein) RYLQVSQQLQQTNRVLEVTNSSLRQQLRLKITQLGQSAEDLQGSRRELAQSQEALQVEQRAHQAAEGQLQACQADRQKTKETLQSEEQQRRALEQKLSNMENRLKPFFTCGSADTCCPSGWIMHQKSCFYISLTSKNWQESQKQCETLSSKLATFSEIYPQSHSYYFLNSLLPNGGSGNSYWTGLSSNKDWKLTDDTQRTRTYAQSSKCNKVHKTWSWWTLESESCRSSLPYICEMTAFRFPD = -1.69
ERGIC1-EDTA (Homo sapiens), Q969X5 (protein) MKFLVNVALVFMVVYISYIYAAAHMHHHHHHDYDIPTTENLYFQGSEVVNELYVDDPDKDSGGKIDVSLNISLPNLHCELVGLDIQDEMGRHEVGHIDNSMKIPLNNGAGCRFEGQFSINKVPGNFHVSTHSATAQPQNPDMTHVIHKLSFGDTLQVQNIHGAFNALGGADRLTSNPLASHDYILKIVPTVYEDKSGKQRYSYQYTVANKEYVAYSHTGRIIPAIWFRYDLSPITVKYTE = -0.034
FGF1 (Homo sapiens), P05230 (protein) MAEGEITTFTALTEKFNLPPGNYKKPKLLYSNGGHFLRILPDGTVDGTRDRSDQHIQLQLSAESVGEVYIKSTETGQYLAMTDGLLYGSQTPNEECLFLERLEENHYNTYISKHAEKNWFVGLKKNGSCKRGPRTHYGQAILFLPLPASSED = -0.582
